- Tested on: PC-3
- Test details: NCI tumour cell line growth inhibition, 48 h
Activity calls are given as the source filed them. Cut-off read from the data, not from the text of the source: active = GI50 up to about 1.1 µM and inactive = higher.
Measurement label: GI50

Consider the reported GI50 for these molecules:
INSERT INTO measurements (line_notation, result) VALUES
  ('O=C1/C(=C/c2ccccc2S)N=C(c2ccccc2)N1c1nc2c(Cl)cc(Cl)cc2s1', '23.9 µM (inactive)'),
  ('O=c1c2ccccc2nc2n1CCc1c-2[nH]c2ccccc12', '22.2 µM (inactive)'),
  ('COc1cc(O)c2c(=O)c3cccc(C)c3[nH]c2c1', '> 10 µM (inactive)');

Qu. Bench note: what GI50 did `O=C(NCCCCNCCCNC(=O)c1ccccc1)c1ccccc1` show?
Ans. > 100 µM (inactive)

----------
Record form. Attribute: GI50. Fill in for each entry.
- System: RPMI-8226
- Test details: NCI tumour cell line growth inhibition, 48 h
Active and inactive are the calls of the source. No stated cut-off is given here; in the data, active = GI50 up to about 1.1 µM and inactive = higher.

INSERT INTO measurements (line_notation, tested_on, measurement_label, result) VALUES
  ('CN(C)CCCN1c2ccccc2Sc2cnccc21', 'RPMI-8226', 'GI50', '79.1 µM (inactive)'),
  ('CCOC(=O)c1ccc(/N=N\c2ccc(N(CCC#N)CCC#N)cc2C)cc1', 'RPMI-8226', 'GI50', '> 100 µM (inactive)');

Then this compound:
Qu. Bench note: what GI50 did `N=C(N)N/N=C/c1nc2n(c1[N+](=O)[O-])CCS2` show?
Ans. 52 µM (inactive)

----------
- Tested on: UACC-257
- Test details: NCI tumour cell line growth inhibition, 48 h
Calls of active or inactive are those of the source. No stated cut-off is given here; in the data, active = GI50 up to about 1.1 µM and inactive = higher.
Result category, one only: 1 (yes) = active, 0 (no) = inactive

Reference set, count: 3
INSERT INTO measurements (compound, assigned_class) VALUES
  ('CC(Oc1ccc2c(-c3ccccc3)cc(=O)oc2c1)C(=O)O (stereo unspecified)', '0 (no)'),
  ('CCOc1ccc2nc(NC(=O)C(=O)C(C(=O)c3ccccc3-c3ccccc3)C3OC(=O)c4ccccc43)sc2c1 (stereo unspecified)', '0 (no)'),
  ('c1ccc(C(NC2CCCCC2NCCNC2CCCCC2NC(c2ccccc2)(c2ccccc2)c2ccccc2)(c2ccccc2)c2ccccc2)cc1 (stereo unspecified)', '0 (no)');

Qu. Please indicate how the test categorized `O=C(/C=C/c1cccc(Oc2ccccc2)c1)NCc1ccc(C(=O)NCCc2ccccc2)cc1` .
Ans. 0 (no)

Qu. Please indicate how the test categorized `COc1ccc(/C(C)=N/NC(=S)N(C)C)c(O)c1` .
Ans. 0 (no)

Qu. Please indicate how the test categorized `CNc1ncc(-c2nnnn2-c2ccccc2)c(CN(C)C)n1` .
Ans. 0 (no)

Qu. Please indicate how the test categorized `CN(C)CCCCN1c2ccccc2Sc2ccc(C(=O)c3ccccc3)cc21` .
Ans. 0 (no)

Qu. Please indicate how the test categorized `CCCCCC1=C/C(=C\c2[nH]c(-c3ccc[nH]3)cc2OC)N=C1C` .
Ans. 1 (yes)

Qu. Please indicate how the test categorized `Cn1c(Nc2ccccc2)c(/C=N\c2ccccc2)c(=O)n(C)c1=O` .
Ans. 0 (no)

Qu. Please indicate how the test categorized `Nc1ccc(Nc2cc(=O)[nH]c(=O)[nH]2)cc1Cl` .
Ans. 0 (no)

Qu. Please indicate how the test categorized CC[N+]1(C)CCC(O)(c2ccc(OC)cc2)C(C(=O)c2ccc(OC)cc2)C1 (stereo unspecified) .
Ans. 0 (no)

----------
- System: SK-OV-3
- Test details: NCI tumour cell line growth inhibition, 48 h
Calls of active or inactive are those of the source. Cut-off read from the data, not from the text of the source: active = GI50 up to about 1.1 µM and inactive = higher.
Record form. Attribute: GI50. Fill in for each entry.

INSERT INTO assay_data (compound, result) VALUES
  ('C1=Nc2ccccc2Cn2nncc21', '> 100 µM (inactive)');

For every record below, what is its GI50?
1. Nc1ccccc1C#CC(=O)c1cccc(C(F)(F)F)c1
2. C=CCC1(OCc2ccccc2)C(=O)C(=O)OC1C1COC(C)(C)O1 (stereo unspecified)
3. O=C1C(Cl)=C(N[C@@H](Cc2ccccc2)C(=O)OCc2ccccc2)C(=O)c2c(O)ccc(O)c21
4. N#C/C(=C\c1ccc(F)cc1)c1nc(-c2cc3ccccc3oc2=O)cs1
5. Cc1[nH]c2c(C)ccc(C)c2c1CC(=O)O
6. COc1cc2c(cc1OCCCCCOc1cc3c(cc1OC)C(=O)N1CCC[C@H]1CN3)N=C[C@@H]1CCCN1C2=O
7. C/C(=C\CCC1=CC(=O)OC1)CCC1C2C(=O)CC(C)[C@@]3(C)CC[C@]1(C)[C@@]23C (stereo partly specified)
8. CCCCCCCCCC[C@@H](O)[C@H]1CC[C@H]([C@H]2CC[C@H]([C@H](O)CCCCCCCCCC[C@@H]3CC(CC(C)=O)C(=O)O3)O2)O1 (stereo partly specified)

Ans.
15.3 µM (inactive)
> 100 µM (inactive)
> 10 µM (inactive)
20.4 µM (inactive)
> 100 µM (inactive)
30.5 µM (inactive)
> 10 µM (inactive)
31.8 µM (inactive)

----------
- System: SK-MEL-2
- Test details: NCI tumour cell line growth inhibition, 48 h
Active and inactive are the calls of the source. Cut-off read from the data, not from the text of the source: active = GI50 up to about 1.1 µM and inactive = higher.
Measurement label: GI50

INSERT INTO results (compound, measurement_label, result) VALUES
  ('NC(Cc1ncccn1)C(=O)O (stereo not given)', 'GI50', '> 100 µM (inactive)'),
  ('O=c1ccn([C@@H]2C[C@H](CO)C[S+]([O-])C2)c(=O)[nH]1 (stereo not given in full)', 'GI50', '> 100 µM (inactive)'),
  ('Nc1ncnc2c1ncn2C1OC(CO)C(O)C1N (stereo not given)', 'GI50', '> 100 µM (inactive)'),
  ('O=C(O)Cc1cc(=O)[nH]c2c1/C(=N/O)CCC2', 'GI50', '> 100 µM (inactive)'),
  ('O=c1c2ccc(S(=O)(=O)c3ccc4c(=O)n5c6ccccc6nc5c5cccc3c45)c3cccc(c32)c2nc3ccccc3n12', 'GI50', '21.3 µM (inactive)');

For every record below, what is its GI50?
1. C[C@H]1C(=O)C2=C[C@H]1CCC(=O)[C@]1(C)CCCC(C)(C)[C@H]1C[C@H]2O
2. Cc1c(C)n(-c2ccccc2)c2nc([S+](C)[O-])nc([S+](C)[O-])c12 (stereo not given)
3. CC[N+](CC)(CC)Cc1cn(S(=O)(=O)c2ccccc2)c2ccccc12
4. COc1cc(OC)c(NC2=NCCO2)cc1Cl
5. N#C/C(=C\c1ccc(CP(=O)(O)O)cc1)C(N)=O
6. CC(=O)OC(CCC1(C)OC1COc1ccc(CCNC(=O)c2ccccc2)cc1)C(C)(C)OC(C)=O (stereo not given)
7. O=C1CSC2(CC(/C=C/c3cccs3)=NN2c2cccc(S(=O)(=O)O)c2)N1c1nc2ccccc2s1 (stereo not given)

Ans.
> 100 µM (inactive)
4.68 µM (inactive)
> 100 µM (inactive)
17.3 µM (inactive)
> 100 µM (inactive)
17.3 µM (inactive)
> 100 µM (inactive)

----------
- Tested on: 786-0
- Test details: NCI tumour cell line growth inhibition, 48 h
Active and inactive are the calls of the source. Cut-off read from the data, not from the text of the source: active = GI50 up to about 1.1 µM and inactive = higher.
Record form. Attribute: GI50. Fill in for each entry.

INSERT INTO assay_data (compound, result) VALUES
  ('COc1cc2oc3cc(=O)cc4oc(-c5ccccc5)cc(c2c2c1CCC(c1ccccc1)O2)c43 (stereo unspecified)', '48.2 µM (inactive)'),
  ('CC(=O)c1ccc2c(c1)CC1(C2)Cc2cc3c(cc2C1)C(=O)CC3 (stereo unspecified)', '3.64 µM (inactive)'),
  ('COc1cc2c(cc1O)[C@@]1(Cc3ccc(OC)c(OC)c3)CCC(=O)N1CC2', '> 100 µM (inactive)'),
  ('Nc1nc2c(ncn2Cc2ccccc2CO)c(=O)[nH]1', '> 100 µM (inactive)'),
  ('C=C1CC(Cn2cc(C)c(=O)[nH]c2=O)(c2ccc(Cl)cc2)OC1=O (stereo unspecified)', '1.56 µM (inactive)');

Then this compound:
Qu. Query the reported GI50 for 786-0; item: COc1ccc(C(CC(C)=O)c2c(O)c3ccccc3oc2=O)cc1OC (stereo unspecified)
Ans. > 100 µM (inactive)

----------
- Tested on: SNB-75
- Test details: NCI tumour cell line growth inhibition, 48 h
Calls of active or inactive are those of the source. Cut-off read from the data, not from the text of the source: active = GI50 up to about 1.1 µM and inactive = higher.
Record form. Attribute: GI50. Fill in for each entry.

INSERT INTO results (molecule, measurement_label, result) VALUES
  ('O=C1C2=C(CC3C(C2)C3(Br)Br)C(=O)C2=C1CC1C(C2)C1(Br)Br (stereo not given)', 'GI50', '> 100 µM (inactive)'),
  ('Cc1ccc([N+](=O)[O-])cc1NC(=O)C(=O)Cc1occc(=O)c1O', 'GI50', '> 100 µM (inactive)'),
  ('Nc1nc2c(ncn2Cc2ccccc2CO)c(=O)[nH]1', 'GI50', '> 100 µM (inactive)'),
  ('COc1ccc(/C=C2\C(=O)N(NC(C)=O)c3ccccc32)cc1', 'GI50', '33.5 µM (inactive)');

Then this molecule:
Qu. Bench note: what GI50 did `CN1N=C2NCCNC3=NN(C)/C(=N/CC/N=C/1S2)S3` show?
Ans. > 100 µM (inactive)
